# Test system: TK-10 renal
# test summary: NCI tumour cell line growth inhibition, 48 h
Recorded TGI, one value per entry.

Determine its reported TGI: C=C1C(=O)O[C@@H]2[C@@H]3O[C@@H](C[C@@H]13)[C@](C)(O)CC/C=C(\C)CCC[C@@H]2C
27.7 µM

Determine its reported TGI: CCOC(=O)CCC(NC(=O)c1ccc(Oc2nc3ccccc3nc2-c2ccccc2)cc1)C(=O)OCC (stereo not given)
> 56.8 µM

###

Recorded TGI, one value per entry.
# Test system: HCT-116 colon
# test summary: NCI tumour cell line growth inhibition, 48 h

Please review the following examples before continuing.
[
  {
    "compound": "O=c1cc(N2CCN(CCCCCOc3cc(O)c4c(=O)cc(-c5ccccc5)oc4c3)CC2)c2ccccc2o1",
    "TGI": "> 100 µM"
  },
  {
    "compound": "CC(C)OP(=O)(OC(C)C)c1nc(-c2ccccc2)n(-c2ccc([N+](=O)[O-])cc2)n1",
    "TGI": "> 100 µM"
  },
  {
    "compound": "C=C1C(C2(C)C(OC(C)=O)CC(=O)OC(C)(COC(C)=O)C2CC(=O)OC)C(OC=O)C(OC(=O)C(O)C(C)CC)C2(C)C(c3ccoc3)CC(=O)C12O (stereo not given)",
    "TGI": "> 100 µM"
  },
  {
    "compound": "C/C(=N\\Nc1cc(C)c2ccccc2n1)c1ccccn1",
    "TGI": "1.29 µM"
  },
  {
    "compound": "COc1cc2cc3c4cc(OC)c(OC)cc4cc[n+]3cc2cc1OC",
    "TGI": "> 100 µM"
  }
]

Determine its reported TGI: CC(=O)NC1=C(NC(C)(C)C)C(=O)c2ccccc2C1=O
64.2 µM

Determine its reported TGI: Cc1cccc(C)c1NC(=O)C(=O)CC(=O)/C=C/c1ccccc1
> 100 µM

Determine its reported TGI: O=C(CC(C(=O)c1cccs1)c1cccs1)c1ccsc1 (stereo not given)
> 100 µM

Determine its reported TGI: COc1ccc(P2(=S)Oc3ccccc3-c3ccccc3O2)cc1
> 38.7 µM

Determine its reported TGI: CN(C)CCCn1c(Cc2ccc(Cl)cc2)nc2cc(C(F)(F)F)ccc21
25 µM

###

# Test system: HT29 colon
# test summary: NCI tumour cell line growth inhibition, 48 h
property label: TGI

Please review the following examples before continuing.
[
  {
    "compound": "COc1ccc(C(=O)C(C(=O)CC(=O)Nc2cccc(C(F)(F)F)c2)c2ccc(OC)cc2)cc1 (stereo not given)",
    "test result": "> 100 µM"
  },
  {
    "compound": "O=c1c2cc(-c3ccccc3)sc2nc2n1N=C(c1ccc(Cl)cc1)CS2",
    "test result": "> 100 µM"
  },
  {
    "compound": "N#CC1=C(N)Oc2c(ccc3ccccc23)C1c1ccccc1 (stereo not given)",
    "test result": "11.1 µM"
  },
  {
    "compound": "CC1C/C(=C\\c2ccc(OC(=O)C(C)(C)C)cc2)C(=O)/C(=C/c2ccc(OC(=O)C(C)(C)C)cc2)C1 (stereo not given)",
    "test result": "> 100 µM"
  }
]

Note: attention shifts to another entry.
Determine its reported TGI: CCCCCCc1ccc(C(=O)NO)cc1
> 100 µM

###

# Test system: SN12C renal
# test summary: NCI tumour cell line growth inhibition, 48 h; in the data active = GI50 below about 0.43 µM; inactive = the rest
Mark one answer only. Choices: class 1 = active, class 0 = inactive

Each molecule tested received a call. Report the one for C=C1C(=O)O[C@H]2[C@H]1CC/C(COC(=O)c1cc3ccccc3o1)=C\CC[C@@]1(C)O[C@@H]21 .
class 0

Each molecule tested received a call. Report the one for Nc1c2c(c(O)c3c1=C(CO)C=N3)=NCCS2 .
class 1

Each molecule tested received a call. Report the one for COc1cccc(/C=C/[N+](=O)[O-])c1 .
class 0

Each molecule tested received a call. Report the one for CC(C)[O-].CC(C)[O-].O=C1C=C([O-])C(=O)c2ccccc21.O=C1C=C([O-])C(=O)c2ccccc21.[Ti+4] .
class 0

Each molecule tested received a call. Report the one for Cc1nc2sc(C(=O)Nc3cccc4ccccc34)c(N)c2cc1C(O)c1ccccc1 (stereo not drawn) .
class 1

###

# System: SK-MEL-5 melanoma
# test summary: NCI tumour cell line growth inhibition, 48 h
property label: TGI (µM)
Unit µM implied. Number only.

[
  {
    "smiles structure": "COc1cc2ncn(-c3cc(O[C@@H](C)c4ccccc4Cl)c(C(N)=O)s3)c2cc1OC",
    "test result": 5.26
  }
]

Report TGI from SK-MEL-5 melanoma testing of Cn1nc(-c2ccccc2)c(C(=O)/C=C/c2ccc(Cl)cc2)c(N2CCCCC2)c1=O
3.75

Report TGI from SK-MEL-5 melanoma testing of O=C1CC(=O)N(C(=O)c2nn(-c3ccc(Cl)cc3)cc2O)N1
12

Report TGI from SK-MEL-5 melanoma testing of CCN(CC)CCC(=O)c1ccc(C)cc1
25.8

###

# Test system: A549 NSCLC
# test summary: NCI tumour cell line growth inhibition, 48 h
Recorded TGI, one value per entry.

Please review the following examples before continuing.
[
  {
    "compound": "O=C1CCCCCCCCCCC1CCCCCBr (configuration not stated)",
    "property label": "TGI",
    "test result": "> 100 µM"
  },
  {
    "compound": "O=C1/C(=C/c2ccc(OC(=O)c3ccccc3)cc2)CCC/C1=C\\c1ccc(OC(=O)c2ccccc2)cc1",
    "property label": "TGI",
    "test result": "> 100 µM"
  },
  {
    "compound": "Clc1nssc1=Nc1nonc1-c1ccccc1",
    "property label": "TGI",
    "test result": "> 100 µM"
  },
  {
    "compound": "O=C1O/C(=C\\c2ccccc2)N(c2ccccc2)C1=O",
    "property label": "TGI",
    "test result": "> 100 µM"
  },
  {
    "compound": "CCOc1ccc(N=Cc2ccc3cc(C)ccc3n2)cc1",
    "property label": "TGI",
    "test result": "> 100 µM"
  }
]

Report TGI from A549 NSCLC testing of COc1ccc2nccc(SCC(=O)O)c2c1
> 100 µM

Report TGI from A549 NSCLC testing of O=C(O)Cc1cc(=O)[nH]c2c1/C(=N/O)CCC2
> 100 µM

Report TGI from A549 NSCLC testing of Cc1ccc(Cc2cnc(NC(=O)/C=C/c3cccc(C)c3)s2)cc1
> 67.7 µM

Report TGI from A549 NSCLC testing of CC(C)(C)[Si](C)(C)Oc1cc(CO)cc2c1cc(=N)o[n+]2[O-]
> 10 µM

Report TGI from A549 NSCLC testing of CCOC(=O)CCC(NC(=O)c1ccc(Oc2nc3ccccc3nc2-c2ccccc2)cc1)C(=O)OCC (configuration not stated)
> 100 µM

Report TGI from A549 NSCLC testing of COc1cccc(C2c3cc4c(cc3OC(N3CCOCC3)C2C)OCO4)c1OC (configuration not stated)
> 100 µM

Report TGI from A549 NSCLC testing of COc1ccc(-c2cc(=O)c3ccccc3o2)cc1N
> 100 µM

Report TGI from A549 NSCLC testing of Oc1c(Cl)c(Cl)c(O)c(CCNc2ccc3ncccc3c2)c1Cl
47.3 µM

###

Recorded TGI, one value per entry.
# Tested on: 786-0 renal
# test summary: NCI tumour cell line growth inhibition, 48 h
*1 amine or outer side, *2 acyl side, *3 side chain or, on linkers, in order; H or OH if unused. Where a SMILES comes first, the peptide text is derived from it. Bridges are numbered along the chain shown (N, C = ends). Roman numbers before positions name the chains, in order. [ ]: non-standard residue; d: D form. Actinocin(9to1) = Cc1c2oc3c(C)ccc(C(=O)[*:1])c3nc-2c(C(=O)[*:2])c(N)c1=O; NMeT = CN[CH](C(=O)O)[CH](C)O; Sar = CNCC(=O)O

Please review the following examples before continuing.
[
  {
    "molecule": "O=S(CC1(O)CCCCC1)c1ccccc1 (stereo not drawn)",
    "test result": "> 100 µM"
  },
  {
    "molecule": "COc1ccc(P2(=S)Oc3ccccc3-c3ccccc3O2)cc1",
    "test result": "> 100 µM"
  }
]

Report TGI from 786-0 renal testing of CNC(=O)c1ccc(N2C(=S)N(c3ccc(C#N)c(C(F)(F)F)c3)C(=O)C2(C)C)cc1F
> 73.5 µM

Report TGI from 786-0 renal testing of N#CC1=C(N)Oc2c(ccc3ccccc23)C1c1ccccc1 (stereo not drawn)
13 µM

Report TGI from 786-0 renal testing of CC(C)(C)[Si](C)(C)Oc1cc(CO)cc2c1cc(=N)o[n+]2[O-]
> 10 µM

Report TGI from 786-0 renal testing of CNC(=S)NC(=O)c1c(Cl)n(C(=O)OC(C)(C)C)c2ccccc12
> 100 µM

Report TGI from 786-0 renal testing of COc1cc2c(cc1OC)-c1ccc3cc4c(cc3c1N(CCCn1ccnc1)C2)OCO4
32.8 µM

Report TGI from 786-0 renal testing of COc1ccc(-c2cc(=O)c3ccccc3o2)cc1N
> 100 µM

Report TGI from 786-0 renal testing of CCOC(=O)NC1C2CC(=O)OC(O2)C1OC(C)=O (stereo not drawn)
> 100 µM

Report TGI from 786-0 renal testing of O=c1cc(N2CCN(CCCCCOc3cc(O)c4c(=O)cc(-c5ccccc5)oc4c3)CC2)c2ccccc2o1
> 100 µM

Report TGI from 786-0 renal testing of COc1cccc2c1CCc1c(-c3ccc(F)cc3)cc(-c3ccc4ccccc4n3)nc1-2
> 100 µM

Report TGI from 786-0 renal testing of COc1ccc2cc3[nH]c(=O)cc(O)c3cc2c1OC
> 100 µM

Report TGI from 786-0 renal testing of C=C1C(=O)OC2C1CCC(C)C1C=CC(=O)C12C (stereo not drawn)
4.19 µM

Report TGI from 786-0 renal testing of COc1ccc(NC([Se])=NC23CC4CC(CC(C4)C2)C3)cc1
4.22 µM

Report TGI from 786-0 renal testing of Cc1nc2sc(C(=O)Nc3cccc4ccccc34)c(N)c2cc1C(O)c1ccccc1 (stereo not drawn)
9.69 µM

Report TGI from 786-0 renal testing of O=C1O[C@H](c2ccccc2)[C@@H]2CC3(CCN12)OCCO3
> 100 µM

Report TGI from 786-0 renal testing of Nc1nc(N)c2cc(-c3ccccc3)cnc2n1
21.5 µM

Report TGI from 786-0 renal testing of Cc1c2oc3c(C)ccc(C(=O)NC4C(=O)NC(C(C)C)C(=O)N5CCCC5C(=O)N(C)CC(=O)N(C)C(C(C)O)C(=O)OC4C)c3nc-2c(C(=O)NC2C(=O)NC(C(C)C)C(=O)N3CCCC3C(=O)N(C)CC(=O)N(C)C(C(C)O)C(=O)OC2C)c(N)c1=O (stereo not drawn) (I: TVP[Sar][NMeT] / II: TVP[Sar][NMeT]; ester I:1-I:C, II:1-II:C; linker I:N-II:N via Actinocin(9to1); configuration not given here)
> 100 µM
